Reference source for all entries: ChEMBL document CHEMBL4251555

# Tested on: PANC-1
# EXPERIMENTAL_DETAILS: Cytotoxicity against human PANC1 cells after 48 hrs by resazurin assay
# Type: functional, cell-based
# MEASUREMENT_CONTEXT: PANC-1, 48 h
Would you kindly list pIC50 for each of these compounds?
For clarity, pIC50 is expressed as the negative log10 of concentration in mol/L.

Suppose we examine the compound CCOc1ccc(NC(=O)/C(C#N)=C(\Nc2ccccc2)SC)cc1 ; what pIC50 value has been reported? 4.31

Suppose we examine the compound CCOc1ccc(-n2nnc3n[nH]c(NC45CC6CC(CC(C6)C4)C5)c3c2=O)cc1 ; what pIC50 value has been reported? 5.36

Suppose we examine the compound C=CCNc1[nH]nc(N)c1C(=O)Nc1ccc(OCC)cc1 ; what pIC50 value has been reported? 4.51

Suppose we examine the compound C=CCNc1[nH]nc2nnn(-c3ccc(OCC)cc3)c(=O)c12 ; what pIC50 value has been reported? 4.88

Suppose we examine the compound C=CCN/C(SC)=C(/C#N)C(=O)Nc1ccc(OCC)cc1 ; what pIC50 value has been reported? 4.66

Suppose we examine the compound CCOc1ccc(NC(=O)CC#N)cc1 ; what pIC50 value has been reported? 4.36

Suppose we examine the compound CCNc1[nH]nc2nnn(-c3ccc(OCC)cc3)c(=O)c12 ; what pIC50 value has been reported? 4.79

Suppose we examine the compound CCOc1ccc(NC(=O)c2c(N)n[nH]c2Nc2ccccc2)cc1 ; what pIC50 value has been reported? 4.68

Suppose we examine the compound CCOc1ccc(NC(=O)c2c(N)n[nH]c2NC23CC4CC(CC(C4)C2)C3)cc1 ; what pIC50 value has been reported? 4.88

Suppose we examine the compound CCOc1ccc(NC(=O)/C(C#N)=C(\NC)SC)cc1 ; what pIC50 value has been reported? 4.58

Suppose we examine the compound CCN/C(SC)=C(/C#N)C(=O)Nc1ccc(OCC)cc1 ; what pIC50 value has been reported? 4.38
